B1: Zinc finger MYM-type protein 3, residues 405 to 444; numbered along this chain, Q14202 (parent)
chain: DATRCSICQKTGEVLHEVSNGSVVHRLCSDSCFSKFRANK

Variants of: B1
Assay: abundance fitness (aPCA) (normalised: wild type 0, dead -1); higher = more abundant; growth selection in yeast, the domain comes from the species named
Settings: Homo sapiens
Listed here are variants together with their documented abundance fitness.
Reply: number alone, nothing else.

Worked examples follow.
K40H    0.222
E17T    -0.089
F33H    0.073
R4D    0
A2E    -0.013
N39W    -0.192
S6W    -0.182
G21P    -0.392
C8I    -0.978
R4A    -0.2

Moving on to another variant below.
Which measured abundance fitness value corresponds to "K10W" ?
-0.479
